Measured target: T1, Rabbit IL-2 (rabbit, UniProt O77620 21-153, limits assumed)
T1 sequence (looked up): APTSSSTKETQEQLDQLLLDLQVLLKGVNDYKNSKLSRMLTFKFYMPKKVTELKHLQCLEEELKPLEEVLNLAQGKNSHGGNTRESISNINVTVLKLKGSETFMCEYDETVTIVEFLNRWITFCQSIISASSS
Experiment summary: SPR (Biacore 4000), IgG captured on anti-human IgG Fc, IL-2 30 nM to 1 nM; affinity estimate
In this section, each of the binders is paired with its reported pKd.
Note on units: pKd is unitless, being -log10 of a concentration expressed in mol/L.

{"Binder": "XPA.92.019 (antibody, V domains shown, Tested as purified full-length human IgG; also called mAb19) VH: EVQLVESGGGLVQPGRSLRLSCAASGFTFSYYGMHWVRQAPGKGLEWVADISNDGSNKYYADSVKGRFTISRDNSKTTLYLQMNSLRPEDTAVYYCATPYYDSSGLDYWGQGTLVTVSS VL: SYELTQPPSVSVSPGQTARITCSGDALPKRFAYWYQQKAGQAPVLVIYEDNKRPSGIPETLSGSSSGTTATLTISGAQEEDEADYYCYSTDNTGGLWVFGGGTKLTVLG", "pKd": 9.70}
{"Binder": "XPA.92.099 (antibody, V domains shown, Tested as purified full-length human IgG; also called mAb99; clone 99) VH: QVQLVESGGGLVKPGRSLRLSCAASGFTFNRYAMSWVRQAPGKGLEWVAMISFDGGNQYYTDSVSGRFTISRDNSKTTLFLQMDSLRTEDTAVYYCVRSPAGDWVAYFDYWGQGTLVTVSS VL: DIQMTQSPSSLSASIGDRVTIPCQASEDISNHLSWYQQKPGKAPKPLIFDASDLETGVPSRFSGSGSGTDFALTISSLRPDDFATYYCHQYHDYPSYTFGHGTKLEIKR", "pKd": 10.05}

--- query ---
Exercise: Suppose we examine the binder XPA.92.041 (antibody, V domains shown, Tested as purified full-length human IgG) VH: EVQLVQSGAEVKKPGESLKISCKGSGYNFDTYWIGWVRQMPGRGLEWMGTIYPADSDTRYSPSFQGQVTTSADKSISTAYLQWGSLRASDTAMYYCARFSSSAYDIWGQGTMVTVSS VL: SYELTQPPSVSVSPGQTARITCSGDALPRQFAYWYQQKPGQAPVLVIYKDTERPSGIPERFSGSSSGTTVTLTISGVQAEDEADYYCQSADSSGTYHVFGGGTQLTVLG ; what pKd value has been reported?
Key: 9.30
